Ref: ChEMBL document CHEMBL1255444

- Test system: Escherichia coli
- Assay overview: Antibacterial activity against ciprofloxacin-resistant Escherichia coli by broth microdilution method
- Type: functional
Each record here notes measured MIC50.
Value kind: MIC50 (µg/mL)

INSERT INTO assay_data (compound, assay_target, obs_value) VALUES
  ('COc1c(N2CCC/C(=C(\F)CN)C2)c(F)cc2c(=O)c(C(=O)O)cn(C3CC3)c12 [ACORAFLOXACIN]', 'Escherichia coli', 4),
  ('CO/N=C1\CN(c2nc3c(cc2F)c(=O)c(C(=O)O)cn3C2CC2)CC1CN (stereo not given) [GEMIFLOXACIN]', 'Escherichia coli', 32),
  ('C[C@H]1COc2c(N3CCN(C)CC3)c(F)cc3c(=O)c(C(=O)O)cn1c23.C[C@H]1COc2c(N3CCN(C)CC3)c(F)cc3c(=O)c(C(=O)O)cn1c23.O [LEVOFLOXACIN]', 'Escherichia coli', 16),
  ('COc1c(N2C[C@@H]3CCCN[C@@H]3C2)c(F)cc2c(=O)c(C(=O)O)cn(C3CC3)c12 [MOXIFLOXACIN]', 'Escherichia coli', 32),
  ('O=C(O)c1cn(C2CC2)c2cc(N3CCNCC3)c(F)cc2c1=O [CIPROFLOXACIN]', 'Escherichia coli', 64);

###

- Test system: Haemophilus influenzae
- Assay overview: Antibacterial activity against Haemophilus influenzae by broth microdilution method
- Assay type: functional
Value kind: MIC50 (ng/mL)

INSERT INTO results (compound, assay_target, unit_annotation, qualifier_symbol, obs_value) VALUES
  ('O=C(O)c1cn(C2CC2)c2cc(N3CCNCC3)c(F)cc2c1=O', 'Haemophilus influenzae', 'ng/mL', '=', 8),
  ('COc1c(N2C[C@@H]3CCCN[C@@H]3C2)c(F)cc2c(=O)c(C(=O)O)cn(C3CC3)c12', 'Haemophilus influenzae', 'ng/mL', '=', 15),
  ('COc1c(N2CCC/C(=C(\F)CN)C2)c(F)cc2c(=O)c(C(=O)O)cn(C3CC3)c12', 'Haemophilus influenzae', 'ng/mL', '=', 8),
  ('CO/N=C1\CN(c2nc3c(cc2F)c(=O)c(C(=O)O)cn3C2CC2)CC1CN (centres undefined)', 'Haemophilus influenzae', 'ng/mL', '≤', 4);

###

- System: Enterococcus faecalis
- Assay overview: Antibacterial activity against Enterococcus faecalis ATCC 29212 by broth microdilution method
- Assay type: functional
Each record here notes measured MIC90.
Value kind: MIC90 (µg/mL)

INSERT INTO measurements (cpd_smiles, qualifier_symbol, obs_value) VALUES
  ('CN[C@H](CC(C)C)C(=O)N[C@H]1C(=O)N[C@@H](CC(N)=O)C(=O)N[C@H]2C(=O)N[C@H]3C(=O)N[C@H](C(=O)N[C@H](C(=O)O)c4cc(O)cc(O)c4-c4cc3ccc4O)[C@H](O)c3ccc(c(Cl)c3)Oc3cc2cc(c3O[C@@H]2O[C@H](CO)[C@@H](O)[C@H](O)[C@H]2O[C@H]2C[C@](C)(N)[C@H](O)[C@H](C)O2)Oc2ccc(cc2Cl)[C@H]1O', '>', 16),
  ('O=C(O)c1cn(C2CC2)c2cc(N3CCNCC3)c(F)cc2c1=O', '>', 16),
  ('COc1c(N2C[C@@H]3CCCN[C@@H]3C2)c(F)cc2c(=O)c(C(=O)O)cn(C3CC3)c12', '=', 16),
  ('COc1c(N2CCC/C(=C(\F)CN)C2)c(F)cc2c(=O)c(C(=O)O)cn(C3CC3)c12', '=', 0.5);

###

- Assay overview: Distribution coefficient, log D of the compound
- Assay type: physicochemical
- Condition parameters: octanol/water
Value kind: logD

INSERT INTO assay_data (cpd_smiles, value_kind, obs_value) VALUES
  ('COc1c(N2CCC/C(=C(\F)CN)C2)c(F)cc2c(=O)c(C(=O)O)cn(C3CC3)c12', 'logD', 0.37);

###

Each record here notes measured MIC50.
- System: Providencia stuartii
- Assay overview: Antibacterial activity against Providencia stuartii by broth microdilution method
- Assay type: functional
Value kind: MIC50 (µg/mL)

INSERT INTO measurements (cpd_smiles, assay_target, obs_value) VALUES
  ('COc1c(N2C[C@@H]3CCCN[C@@H]3C2)c(F)cc2c(=O)c(C(=O)O)cn(C3CC3)c12', 'Providencia stuartii', 32),
  ('O=C(O)c1cn(C2CC2)c2cc(N3CCNCC3)c(F)cc2c1=O', 'Providencia stuartii', 32),
  ('COc1c(N2CCC/C(=C(\F)CN)C2)c(F)cc2c(=O)c(C(=O)O)cn(C3CC3)c12', 'Providencia stuartii', 2),
  ('C[C@H]1COc2c(N3CCN(C)CC3)c(F)cc3c(=O)c(C(=O)O)cn1c23.C[C@H]1COc2c(N3CCN(C)CC3)c(F)cc3c(=O)c(C(=O)O)cn1c23.O', 'Providencia stuartii', 16);

###

- Assay overview: Dissociation constant, pKa of the compound
- Assay type: physicochemical
Value kind: pKa

INSERT INTO assay_data (molecule, obs_value) VALUES
  ('COc1c(N2CCC/C(=C(\F)CN)C2)c(F)cc2c(=O)c(C(=O)O)cn(C3CC3)c12 [ACORAFLOXACIN]', 6.13);

###

- Test system: Staphylococcus aureus
- Assay overview: Antibacterial activity against Staphylococcus aureus […] by broth microdilution method
- Type: functional
Each record here notes measured MIC90.
Value kind: MIC90 (mg/L)

INSERT INTO measurements (cpd_smiles, assay_target, unit_annotation, qualifier_symbol, obs_value) VALUES
  ('COc1c(N2CCC/C(=C(\F)CN)C2)c(F)cc2c(=O)c(C(=O)O)cn(C3CC3)c12', 'Staphylococcus aureus', 'mg/L', '=', 0.25),
  ('O=C(O)c1cn(C2CC2)c2cc(N3CCNCC3)c(F)cc2c1=O', 'Staphylococcus aureus', 'mg/L', '>', 32),
  ('CN[C@H](CC(C)C)C(=O)N[C@H]1C(=O)N[C@@H](CC(N)=O)C(=O)N[C@H]2C(=O)N[C@H]3C(=O)N[C@H](C(=O)N[C@H](C(=O)O)c4cc(O)cc(O)c4-c4cc3ccc4O)[C@H](O)c3ccc(c(Cl)c3)Oc3cc2cc(c3O[C@@H]2O[C@H](CO)[C@@H](O)[C@H](O)[C@H]2O[C@H]2C[C@](C)(N)[C@H](O)[C@H](C)O2)Oc2ccc(cc2Cl)[C@H]1O', 'Staphylococcus aureus', 'mg/L', '=', 1),
  ('COc1c(N2C[C@@H]3CCCN[C@@H]3C2)c(F)cc2c(=O)c(C(=O)O)cn(C3CC3)c12', 'Staphylococcus aureus', 'mg/L', '=', 8);

###

Each record here notes measured MIC90.
- Test system: Staphylococcus epidermidis
- Assay overview: Antibacterial activity against methicillin-, ciprofloxacin-resistant Staphylococcus epidermidis by broth microdilution method
- Type: functional
Value kind: MIC90 (µg/mL)

INSERT INTO results (compound, obs_value) VALUES
  ('O=C(O)c1cn(C2CC2)c2cc(N3CCNCC3)c(F)cc2c1=O [CIPROFLOXACIN]', 128),
  ('COc1c(N2CCC/C(=C(\F)CN)C2)c(F)cc2c(=O)c(C(=O)O)cn(C3CC3)c12 [ACORAFLOXACIN]', 0.25),
  ('C[C@H]1COc2c(N3CCN(C)CC3)c(F)cc3c(=O)c(C(=O)O)cn1c23.C[C@H]1COc2c(N3CCN(C)CC3)c(F)cc3c(=O)c(C(=O)O)cn1c23.O [LEVOFLOXACIN]', 16),
  ('CN[C@H](CC(C)C)C(=O)N[C@H]1C(=O)N[C@@H](CC(N)=O)C(=O)N[C@H]2C(=O)N[C@H]3C(=O)N[C@H](C(=O)N[C@H](C(=O)O)c4cc(O)cc(O)c4-c4cc3ccc4O)[C@H](O)c3ccc(c(Cl)c3)Oc3cc2cc(c3O[C@@H]2O[C@H](CO)[C@@H](O)[C@H](O)[C@H]2O[C@H]2C[C@](C)(N)[C@H](O)[C@H](C)O2)Oc2ccc(cc2Cl)[C@H]1O [VANCOMYCIN]', 2),
  ('COc1c(N2C[C@@H]3CCCN[C@@H]3C2)c(F)cc2c(=O)c(C(=O)O)cn(C3CC3)c12 [MOXIFLOXACIN]', 4);

###

- Test system: Streptococcus pneumoniae
- Assay overview: Antibacterial activity against Streptococcus pneumoniae ATCC 49619 by broth microdilution method
- Format: functional
Value kind: MIC50 (µg/mL)

INSERT INTO results (compound, assay_target, obs_value) VALUES
  ('COc1c(N2C[C@@H]3CCCN[C@@H]3C2)c(F)cc2c(=O)c(C(=O)O)cn(C3CC3)c12', 'Streptococcus pneumoniae', 0.25),
  ('CC1(C)S[C@@H]2[C@H](NC(=O)Cc3ccccc3)C(=O)N2[C@H]1C(=O)O', 'Streptococcus pneumoniae', 0.06),
  ('CO/N=C1\CN(c2nc3c(cc2F)c(=O)c(C(=O)O)cn3C2CC2)CC1CN (stereo not given)', 'Streptococcus pneumoniae', 0.03),
  ('CC[C@H]1OC(=O)[C@H](C)[C@@H](O[C@H]2C[C@@](C)(OC)[C@@H](O)[C@H](C)O2)[C@H](C)[C@@H](O[C@@H]2O[C@H](C)C[C@H](N(C)C)[C@H]2O)[C@](C)(O)C[C@@H](C)C(=O)[C@H](C)[C@@H](O)[C@]1(C)O', 'Streptococcus pneumoniae', 0.06),
  ('COc1c(N2CCC/C(=C(\F)CN)C2)c(F)cc2c(=O)c(C(=O)O)cn(C3CC3)c12', 'Streptococcus pneumoniae', 0.015);
